Values from ChEMBL document CHEMBL1201862

# Test system: SK-OV-3
# Measurement Notes: NCI tumour cell line growth inhibition, 48 h
Activity calls are given as the source filed them. No stated cut-off is given here; in the data, active = GI50 up to about 1.1 µM and inactive = higher.
Value Type: GI50

Fill: GI50 (SK-OV-3) for this molecule `O=CC1=C(C(=O)OC(c2ccccc2)c2ccccc2)N2C(=O)[C@@H](NC(=O)Cc3cccs3)[C@H]2SC1`
> 100 µM (inactive)

Report GI50 from SK-OV-3 testing of `CCCCCCC(=O)OC[n+]1ccc(-c2c(COC(=O)NC(C)C)c(COC(=O)NC(C)C)c3n2CCC3)cc1`
> 100 µM (inactive)

// fetch GI50; item: `Cc1c(C2=NN=C(/N=N/c3c(O)cccc3O)/C2=C/c2ccccc2)c(=O)n(-c2ccccc2)n1C` ; system: SK-OV-3
> 100 µM (inactive)

Please report GI50 with SK-OV-3 for item COc1ccc2c3c1OC1C(OC)(OC)C=C[C@@]4(Br)[C@@H](C2)N(CC2CC2)CC[C@]314 (stereo not given in full) .
> 100 µM (inactive)

Give the observed GI50 of `O=C1c2cccc3c2C(=O)c2c(cccc21)OCCOCCOCCOCCO3` for SK-OV-3.
> 100 µM (inactive)
